Tested on: Aphid
Setup conditions: Dose 1 ml/gm/lit.; 48 hrs
// reported % Corrected Mortality at 48 Hrs. per item
API: value field is a number in %; no unit string.

Previously resolved entries follow.
{"Molecule": "Cc1ccc(C(C)C)cc1O [Carvacrol]", "Value measured": 65.71}
{"Molecule": "O=c1oc2c(O)c(O)cc3c(=O)oc4c(O)c(O)cc1c4c23 [Ellagic acid]", "Value measured": 68.57}
{"Molecule": "O=C(/C=C/C=C/c1ccc2c(c1)OCO2)N1CCCCC1 [Piperine]", "Value measured": 65.71}
{"Molecule": "C=C1C2CCC(C2)C1(C)C (centres unmarked) [Camphene, camphene]", "Value measured": 45.71}

Field request: % Corrected Mortality at 48 Hrs. | item: C=CCc1ccc(O)c(OC)c1 [Eugenol]
54.29

====

Quick reference: Root Lenght (cm) 10th Day of the listed items.
Tested on: chili seedlings
Test summary: Response of chili plants, greenhouse growth (Ex. 31)
Assay type: in vivo
Setup conditions: chili seedlings; dose 1 ml/gm/lit; 10th day
Number in cm, nothing else.

{"Compound": "CC(C)c1ccc(C=O)cc1 [Cuminaldehyde]", "Target or test system": "chili seedlings", "Unit abbrev": "cm", "Root Lenght (cm) 10th Day": 3.12}
{"Compound": "CCCCCCCCCCCCCCCC(=O)O [Palmitic acid]", "Target or test system": "chili seedlings", "Unit abbrev": "cm", "Root Lenght (cm) 10th Day": 4.41}
{"Compound": "Cc1ccc(C(C)C)cc1 [p-Cymene]", "Target or test system": "chili seedlings", "Unit abbrev": "cm", "Root Lenght (cm) 10th Day": 3.15}

What does the record list as Root Lenght (cm) 10th Day for COc1cc(CNC(=O)CCCC/C=C/C(C)C)ccc1O [Capsaicin] ?
2.99

// lookup Root Lenght (cm) 10th Day for C=CCc1ccc(OC)cc1 [Methyl chavicol]
3.11

For the compound CC12CCC(CC1=O)C2(C)C (stereo not shown) [Camphor] , what Root Lenght (cm) 10th Day is on record?
3.47

====

Tested on: tomato seedlings
Test summary: Response of tomato plants, greenhouse growth (Ex. 30)
Assay type: in vivo
Setup conditions: tomato seedlings; 5th day after application; dose 1 ml/gm/lit
// values below are reported Plant Height 5th Day
Reply numerically in cm, unit not repeated.

{"Molecule": "O=c1oc2c(O)c(O)cc3c(=O)oc4c(O)c(O)cc1c4c23", "Observable": "Plant Height 5th Day", "Unit abbrev": "cm", "Value measured": 7.09}
{"Molecule": "COc1cc(CNC(=O)CCCC/C=C/C(C)C)ccc1O", "Observable": "Plant Height 5th Day", "Unit abbrev": "cm", "Value measured": 7.11}
{"Molecule": "CC(C)c1ccc(C=O)cc1", "Observable": "Plant Height 5th Day", "Unit abbrev": "cm", "Value measured": 6.62}
{"Molecule": "Cc1ccc(C(C)C)cc1O", "Observable": "Plant Height 5th Day", "Unit abbrev": "cm", "Value measured": 6.38}
{"Molecule": "CC12CCC(CC1)C(C)(C)O2", "Observable": "Plant Height 5th Day", "Unit abbrev": "cm", "Value measured": 6.84}
{"Molecule": "CCCCCCCCCCCCCCCC(=O)O", "Observable": "Plant Height 5th Day", "Unit abbrev": "cm", "Value measured": 7.14}
{"Molecule": "C/C=C\\c1cc(OC)c(OC)cc1OC", "Observable": "Plant Height 5th Day", "Unit abbrev": "cm", "Value measured": 6.72}
{"Molecule": "CC1=CC(=O)C(C(C)C)=CC1=O", "Observable": "Plant Height 5th Day", "Unit abbrev": "cm", "Value measured": 6.58}
{"Molecule": "C=CCc1ccc(OC)cc1", "Observable": "Plant Height 5th Day", "Unit abbrev": "cm", "Value measured": 7.16}
{"Molecule": "CC1=CCC2CC1C2(C)C (stereo not shown)", "Observable": "Plant Height 5th Day", "Unit abbrev": "cm", "Value measured": 7.24}

Using the record for CC1CCC(C(C)C)C(O)C1 (stereo not shown) , report its Plant Height 5th Day.
6.78

Name the reported Plant Height 5th Day value associated with the molecule CC12CCC(CC1=O)C2(C)C (stereo not shown)
6.34

Reported Plant Height 5th Day, molecule C=CCc1ccc(OC)c(O)c1 : ____
7.26

Which measured Plant Height 5th Day value corresponds to Cc1ccc(C(C)C)c(O)c1 ?
6.81

Would you kindly share the measured Plant Height 5th Day for CCCCCCCCCC(C)=O ?
6.48

Value lookup for Plant Height 5th Day; key = O=C(/C=C/C=C/c1ccc2c(c1)OCO2)N1CCCCC1
6.41

====

Tested on: Mealy Bug
Setup conditions: Mealy Bug on cotton leaves; dose 1 ml/gm/lit.; 48 Hrs.
// values below are reported % Mortality at 48 Hrs.
Write the quantity with the unit trailing the number.

{"Compound": "CCCCCCCCCC(C)=O", "% Mortality at 48 Hrs.": "55.00%"}
{"Compound": "C/C=C\\c1cc(OC)c(OC)cc1OC", "% Mortality at 48 Hrs.": "30.00%"}
{"Compound": "Cc1ccc(C(C)C)cc1O", "% Mortality at 48 Hrs.": "67.50%"}

Alright, here's another compound for you.
Can you look up the measured % Mortality at 48 Hrs. of CC12CCC(CC1=O)C2(C)C (stereo not shown) for me?
52.50%

====

System: Spodoptera litura
Test summary: whole plant or invertebrate
Setup conditions: 72 h, read-out: % Mortality at 72 Hrs.
Observable: mortality at 1 mL or g/L
Note to self: number, then unit, no commentary.

Consider the following illustrative entries.
{"Molecule": "Cc1ccc(C(C)C)c(O)c1 [Thymol]", "Value measured": "67.5%"}
{"Molecule": "Cc1ccc(C(C)C)cc1 [p-Cymene]", "Value measured": "72.5%"}
{"Molecule": "C=CCc1ccc(OC)c(O)c1 [Chavibetol]", "Value measured": "42.5%"}

Item under review: CCCCCCCCCC(C)=O [Embodiment 2-undecanone, 2-undecanone] . Reported mortality at 1 mL or g/L?
40%

Can you share its mortality at 1 mL or g/L? I mean this molecule: C=C1C2CCC(C2)C1(C)C (stereo not shown) [Camphene, camphene]
67.5%

Query (molecule): C=CCc1ccc(O)c(OC)c1 [Eugenol] ; field requested: mortality at 1 mL or g/L
60%

====

Test system: chili seedlings
Test summary: Response of chili plants, greenhouse growth (Ex. 31)
Assay type: in vivo
Plant Height (cm) Pre by entry:
Please give a number only; it is taken to be in cm.

Field: example entries. Status: answers known.
{"Molecule": "CC(C)c1ccc(C=O)cc1 [Cuminaldehyde]", "Plant Height (cm) Pre": 4.27}
{"Molecule": "CC(C)=CCCC(C)=CC=O [Citral]", "Plant Height (cm) Pre": 4.47}
{"Molecule": "C=C1C2CCC(C2)C1(C)C (centres unmarked) [Camphene, camphene]", "Plant Height (cm) Pre": 3.94}
{"Molecule": "C=C(C)[C@H]1CC=C(C)CC1 [D-limonene]", "Plant Height (cm) Pre": 4.90}
{"Molecule": "Cc1ccc(C(C)C)cc1 [p-Cymene]", "Plant Height (cm) Pre": 4.29}
{"Molecule": "CCCCC[C@H](O)CC(=O)CCc1ccc(O)c(OC)c1 [Gingerol]", "Plant Height (cm) Pre": 4.05}
{"Molecule": "C=CCc1ccc(O)c(OC)c1 [Eugenol]", "Plant Height (cm) Pre": 4.57}

Now for another entry.
Form: Entry = C=CCc1ccc(OC)c(O)c1 [Chavibetol] | System = chili seedlings | Plant Height (cm) Pre = ____
4.39

====

Tested on: Alternaria alternata
Test summary: Alternaria leaf spot/blight on inoculated tomato plants (Ex. 28)
Assay type: in vivo
Setup conditions: tomato plants, Alternaria alternata; after 7 days; dose 1 ml/gm/lit
Observable: % Disease reduction over Control (%)
All answers are understood in %, so give the number only.

Example cases with answers are listed next.
{"Compound": "CC(C)c1ccc(C=O)cc1 [Cuminaldehyde]", "Target or test system": "Alternaria alternata", "Value measured": 52.89}
{"Compound": "CC1=CC(=O)C(C(C)C)=CC1=O [Thymoquinone]", "Target or test system": "Alternaria alternata", "Value measured": 44.63}
{"Compound": "CC1=CCC2CC1C2(C)C (stereo not drawn) [Alpha-pinene]", "Target or test system": "Alternaria alternata", "Value measured": 42.15}
{"Compound": "CC12CCC(CC1)C(C)(C)O2 [1,8 cineole]", "Target or test system": "Alternaria alternata", "Value measured": 46.28}

Give its % Disease reduction over Control value. Item: C=CCc1ccc(OC)c(O)c1 [Chavibetol]
47.11

Give its % Disease reduction over Control value. Item: O=C(/C=C/C=C/c1ccc2c(c1)OCO2)N1CCCCC1 [Piperine]
53.72

State the recorded % Disease reduction over Control for this entry: Cc1ccc(C(C)C)c(O)c1 [Thymol]
61.16

Query (compound): C/C=C\c1cc(OC)c(OC)cc1OC [β-Asarone] ; field requested: % Disease reduction over Control
64.46

Name the reported % Disease reduction over Control value associated with the compound C=CCc1ccc(OC)cc1 [Methyl chavicol]
48.76

What measured % Disease reduction over Control goes with CCCCCCCCCCCCCCCC(=O)O [Palmitic acid] ?
50.41

So what does the record say about % Disease reduction over Control for CCCCCCCCCC(C)=O [Embodiment 2-undecanone, 2-undecanone] ?
58.68

Which value of % Disease reduction over Control has been reported for CC12CCC(CC1=O)C2(C)C (stereo not drawn) [Camphor] in the records?
46.28

Quick check: % Disease reduction over Control of Cc1ccc(C(C)C)cc1O [Carvacrol] ?
47.93

State the recorded % Disease reduction over Control for this entry: CC1CCC(C(C)C)C(O)C1 (stereo not drawn) [Menthol]
56.20

Param item = O=c1oc2c(O)c(O)cc3c(=O)oc4c(O)c(O)cc1c4c23 [Ellagic acid] ; retrieve measured % Disease reduction over Control.
66.12

The reported numbers originate from patent US20250351832A1.
